Experiment: In vitro cytotoxic activity, MTT assay
Assay type: cell-based, BALB/c mice
Details: BALB/c, mouse, 48 h; MTT; value (95% CI); read-out: CC50 Peritoneal murine macrophages 48 h
test readout: CC50 at 48 h (µM)
Please reply with the bare figure in µM and do not write the unit itself.

Incoming: Specify measured CC50 at 48 h for "C=CC(C)(C)c1cc(/C=C/C(=O)c2ccc(O)cc2)c(OC)cc1O" .
Outgoing: 123

* * *

Test: In vitro cytotoxic activity, MTT assay
Assay type: cell-based, BALB/c mice
Conditions: BALB/c, mouse, peritoneal murine macrophages; 48 h; MTT; value (95% CI)
test readout: CC50 at 48 h

Incoming: Specify measured CC50 at 48 h for "COc1ccc(C(=O)/C=C/c2ccc(OCC=C(C)C)c(OC)c2)cc1" .
Outgoing: > 400 µM

* * *

System: amastigote forms of L. (L.) infantum
Test: In vitro leishmanicidal activity against intracellular amastigote forms in peritoneal murine macrophages (Giemsa, parasite load)
Type: cell-based, Leishmania (Leishmania) infantum
Settings: Leishmania infantum, Macrophage, 48 h, read-out: IC50 L (L.) infantum Amastigote 48 h
Method: L. (L.) amazonensis (IFLA/BR/67/PH8.) was maintained as promastigote forms in Roswell Park Memorial Institute medium (RPMI 1640 medium) (Gibco, Grand Island, NY, USA), supplemented with antibiotics (penicillin 10.000 UI/mL and streptomycin […]) (Cultilab, Campinas, BR), and 10% bovine fetal serum (FBS) (Cultilab), at 25°C. […]
test readout: pIC50
Just so you know, pIC50 here is -log10 of the concentration in molar units; reply with that number alone.

Incoming: Under amastigote forms of L. (L.) infantum, report pIC50 for C=CC(C)(C)c1cc(/C=C/C(=O)c2ccc(O)cc2)c(OC)cc1O [LicoA (1), Licochalcone A]
Outgoing: 4.53

* * *

System: promastigote forms of L. (L.) infantum
Experiment: In vitro leishmanicidal activity, growth inhibition of promastigote forms (counting in Neubauer's chamber)
Assay type: cell-based, Leishmania (Leishmania) infantum
Details: Leishmania infantum, 48 h, read-out: IC50 L (L.) infantum Promastigote 48 h
test readout: pIC50
Just so you know, pIC50 here is -log10 of the concentration in molar units; reply with that number alone.

Incoming: Specify measured pIC50 for "C=CC(C)(C)c1cc(/C=C/C(=O)c2ccc(O)cc2)c(OC)cc1O" .
Outgoing: 4.90
